What follows is a collection of IC50 values obtained with UniProt P26663.
Sequence (P26663 2420-2989, stated change not applied): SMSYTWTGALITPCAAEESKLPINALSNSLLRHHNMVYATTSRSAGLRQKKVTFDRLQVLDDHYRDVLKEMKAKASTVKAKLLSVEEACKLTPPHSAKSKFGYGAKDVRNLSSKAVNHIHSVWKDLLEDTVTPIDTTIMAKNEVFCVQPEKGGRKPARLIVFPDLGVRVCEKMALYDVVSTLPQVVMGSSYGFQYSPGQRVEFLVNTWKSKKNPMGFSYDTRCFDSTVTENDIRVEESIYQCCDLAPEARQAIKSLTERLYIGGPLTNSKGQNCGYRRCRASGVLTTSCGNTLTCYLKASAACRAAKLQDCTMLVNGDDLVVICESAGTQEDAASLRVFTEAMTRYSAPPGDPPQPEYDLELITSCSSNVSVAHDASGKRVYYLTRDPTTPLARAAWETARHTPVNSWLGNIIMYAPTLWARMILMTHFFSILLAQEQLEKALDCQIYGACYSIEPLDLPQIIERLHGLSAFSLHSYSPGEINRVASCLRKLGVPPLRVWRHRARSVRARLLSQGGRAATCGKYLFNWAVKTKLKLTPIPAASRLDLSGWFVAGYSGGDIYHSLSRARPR

The examples below pair each entry with its known result.
| MOLECULE | IC50 |
| --- | --- |
| CNC(=O)c1c2cc(C3CC3)c(N(CCC3(OC)CNC3)S(C)(=O)=O)cc2nn1-c1ccc(Cl)cc1 [Compound 29] | 1000 to 10000 nM |
| CNC(=O)c1c2cc(C3CC3)c(N(CCC3(C(C)C)COC3)S(C)(=O)=O)cc2nn1-c1ccc(Cl)cc1 [Compound 16] | < 100 nM |
| CNC(=O)c1c2cc(C3CC3)c(N(CCC3(F)COC3)S(C)(=O)=O)cc2nn1-c1ccc(Cl)cc1 [Compound 26] | < 100 nM |

// query For the record CNC(=O)c1c2cc(C3CC3)c(N(CCCC3CCO3)S(C)(=O)=O)cc2nn1-c1ccc(Cl)cc1 (stereo not drawn) [Compound 4] , what value of IC50 is listed for UniProt P26663?
// result < 100 nM

// query For the record CNC(=O)c1c2cc(C3CC3)c(N(CCC3OCC3C)S(C)(=O)=O)cc2nn1-c1ccc(Cl)cc1 (stereo not drawn) [Compound 17] , what value of IC50 is listed for UniProt P26663?
// result 100 to 490 nM

// query For the record CNC(=O)c1c2cc(C3CC3)c(N(CC[C@@H]3CO[C@H]3C)S(C)(=O)=O)cc2nn1-c1ccc(Cl)cc1 (single isomer, unassigned) [Compound 32] , what value of IC50 is listed for UniProt P26663?
// result 100 to 490 nM

###

# METHOD SUMMARY: Aqueous solubility (laser nephelometry)
# Assay type: physicochemical
# SETUP CONDITIONS: aqueous assay buffer pH 6.5 with 1% DMSO, aqueous buffer, kinetic from dmso stock; pH 6.5, 1% DMSO, 30 minute incubation at 25° C.; read-out: Solubility at pH 6.5
solubility at 30 min values by entry

The examples below pair each entry with its known result.
| MOLECULE | solubility at 30 min |
| --- | --- |
| CNC(=O)c1c2cc(C3CC3)c(N(CC3COC3)S(C)(=O)=O)cc2nn1-c1ccc(Cl)cc1 | 25 to 50 µg/mL |
| CNC(=O)c1c2cc(C3CC3)c(N(CC3CCOC3)S(C)(=O)=O)cc2nn1-c1ccc(Cl)cc1 (centres unmarked) [C, reference compound] | < 1.6 µg/mL |
| CNC(=O)c1c2cc(C3CC3)c(N(CC3CCC3)S(C)(=O)=O)cc2nn1-c1ccc(Cl)cc1 [A, reference compound] | 1.6 to 3.1 µg/mL |

// query Which measured solubility at 30 min value corresponds to CNC(=O)c1c2cc(C3CC3)c(N(CCC3CCOCC3)S(C)(=O)=O)cc2nn1-c1ccc(Cl)cc1 [D, reference compound] ?
// result < 1.6 µg/mL

// query Which measured solubility at 30 min value corresponds to CNC(=O)c1c2cc(C3CC3)c(N(CC3CC3)S(C)(=O)=O)cc2nn1-c1ccc(Cl)cc1 [B, reference compound] ?
// result 3.1 to 6.3 µg/mL

###

What follows is a collection of IC50 values obtained with UniProt:P26663.

The examples below pair each entry with its known result.
| MOLECULE | TARGET OR SYSTEM | EXPERIMENTAL ENDPOINT | RESULT |
| --- | --- | --- | --- |
| CNC(=O)c1c2cc(C3CC3)c(N(CC(C)C3COC3)S(C)(=O)=O)cc2nn1-c1ccc(Cl)cc1 (stereo not shown) | UniProt:P26663 | IC50 | 100 to 490 nM |
| CNC(=O)c1c2cc(C3CC3)c(N(CCC3COC3)S(C)(=O)=O)cc2nn1-c1ccc(C)cc1 | UniProt:P26663 | IC50 | < 100 nM |
| CNC(=O)c1c2cc(C3CC3)c(N(CC3COC3)S(C)(=O)=O)cc2nn1-c1ccc(Cl)cc1 | UniProt:P26663 | IC50 | 100 to 490 nM |

// query Which measured IC50 value corresponds to CNC(=O)c1c2cc(C3CC3)c(N(CCC3CNC3)S(C)(=O)=O)cc2nn1-c1ccc(Cl)cc1 ?
// result 100 to 490 nM

// query Which measured IC50 value corresponds to CNC(=O)c1c2cc(C3CC3)c(N(CCC3COC3)S(C)(=O)=O)cc2nn1-c1ccc(Cl)cc1 ?
// result < 100 nM

// query Which measured IC50 value corresponds to CNC(=O)c1c2cc(C3CC3)c(N(CC3(C)COC3)S(C)(=O)=O)cc2nn1-c1ccc(Cl)cc1 ?
// result 1000 to 10000 nM

// query Which measured IC50 value corresponds to CNC(=O)c1c2cc(C3CC3)c(N(CCC3(OC)CN(C(=O)OC(C)(C)C)C3)S(C)(=O)=O)cc2nn1-c1ccc(Cl)cc1 ?
// result 500 to 990 nM

###

# METHOD SUMMARY: Aqueous solubility (laser nephelometry)
# Assay type: physicochemical
# SETUP CONDITIONS: aqueous assay buffer pH 6.5 with 1% DMSO, aqueous buffer, kinetic from dmso stock; pH 6.5, 1% DMSO, 30 minute incubation at 25° C.; read-out: solubility ranges at pH 6.5
solubility at 30 min values by entry

The examples below pair each entry with its known result.
| COMPOUND | RESULT |
| --- | --- |
| CNC(=O)c1c2cc(C3CC3)c(N(CC[C@H]3CO[C@@H]3C)S(C)(=O)=O)cc2nn1-c1ccc(Cl)cc1 (single isomer, unassigned) | 50 to 100 µg/mL |
| CNC(=O)c1c2cc(C3CC3)c(N(CCC3(CNC(=O)OC(C)(C)C)COC3)S(C)(=O)=O)cc2nn1-c1ccc(C)cn1 | 12.5 to 25 µg/mL |
| CNC(=O)c1c2cc(C3CC3)c(N(CCC3(OC)CNC3)S(C)(=O)=O)cc2nn1-c1ccc(Cl)cc1 | 12.5 to 25 µg/mL |
| CNC(=O)c1c2cc(C3CC3)c(N(CCC3(OC)CN(C(C)=O)C3)S(C)(=O)=O)cc2nn1-c1ccc(Cl)cc1 | 50 to 100 µg/mL |
| CNC(=O)c1c2cc(C3CC3)c(N(CCC3(F)COC3)S(C)(=O)=O)cc2nn1-c1ccc(Cl)cc1 | 25 to 50 µg/mL |
| CNC(=O)c1c2cc(C3CC3)c(N(CCC3COC3C)S(C)(=O)=O)cc2nn1-c1ccc(Cl)cc1 (stereo not shown) | 25 to 50 µg/mL |

// query Which measured solubility at 30 min value corresponds to CNC(=O)c1c2cc(C3CC3)c(N(CCC3(OC)COC3)S(C)(=O)=O)cc2nn1-c1ccc(C)cn1 ?
// result 50 to 100 µg/mL

// query Which measured solubility at 30 min value corresponds to CNC(=O)c1c2cc(C3CC3)c(N(CCC3OCC3C)S(C)(=O)=O)cc2nn1-c1ccc(Cl)cc1 (stereo not shown) ?
// result 50 to 100 µg/mL

// query Which measured solubility at 30 min value corresponds to CNC(=O)c1c2cc(C3CC3)c(N(CCC3CN(C(C)=O)C3)S(C)(=O)=O)cc2nn1-c1ccc(Cl)cc1 ?
// result 25 to 50 µg/mL

// query Which measured solubility at 30 min value corresponds to CNC(=O)c1c2cc(C3CC3)c(N(CCC3(OC)COC3)S(C)(=O)=O)cc2nn1-c1ccc(Cl)cc1 ?
// result 50 to 100 µg/mL

###

solubility at 30 min values by entry
# METHOD SUMMARY: Aqueous solubility (laser nephelometry)
# Type: physicochemical
# SETUP CONDITIONS: aqueous assay buffer pH 6.5 with 1% DMSO, aqueous buffer, kinetic from dmso stock; pH 6.5, 1% DMSO, 30 minute incubation at 25° C.; read-out: solubility ranges at pH 6.5

The examples below pair each entry with its known result.
| COMPOUND | RESULT |
| --- | --- |
| CNC(=O)c1c2cc(C3CC3)c(N(CC[C@@H]3CO[C@H]3C)S(C)(=O)=O)cc2nn1-c1ccc(Cl)cc1 (single isomer, unassigned) [Compound 32] | 25 to 50 µg/mL |
| CNC(=O)c1c2cc(C3CC3)c(N(CCC3COC3C)S(C)(=O)=O)cc2nn1-c1ccc(C)cn1 (stereo not drawn) [Compound 20] | 12.5 to 25 µg/mL |
| CNC(=O)c1c2cc(C3CC3)c(N(CCC3(C)COC3)S(C)(=O)=O)cc2nn1-c1ccc(C)cn1 [Compound 21] | > 100 µg/mL |

// query Which measured solubility at 30 min value corresponds to CNC(=O)c1c2cc(C3CC3)c(N(CCC3CN(C(=O)OC(C)(C)C)C3)S(C)(=O)=O)cc2nn1-c1ccc(C)cn1 [Compound 24] ?
// result 12.5 to 25 µg/mL

// query Which measured solubility at 30 min value corresponds to CNC(=O)c1c2cc(C3CC3)c(N(CC(F)C3COC3)S(C)(=O)=O)cc2nn1-c1ccc(Cl)cc1 (stereo not drawn) [Compound 18] ?
// result 50 to 100 µg/mL

// query Which measured solubility at 30 min value corresponds to CNC(=O)c1c2cc(C3CC3)c(N(CCC3COC3)S(C)(=O)=O)cc2nn1-c1ccc(C)cc1 [Compound 3] ?
// result 12.5 to 25 µg/mL
